Numbers sourced from paper PMC6736837.

assay: Binding to human plasma proteins by gel filtration; format: in vitro ADME; details: 37 °C, read-out: Free fraction in plasma
Listing of recorded fraction unbound at 10 min by entry.

Previously resolved entries follow.
N/C(=N/C(=O)NCc1cn(CCOCCOCCOCC[18F])nn1)NCCC[C@@H](NC(=O)C(c1ccccc1)c1ccccc1)C(=O)NCc1ccc(O)cc1 [[^18F]13]    0.37
N/C(=N/C(=O)NCc1cn(CCOCC[18F])nn1)NCCC[C@@H](NC(=O)C(c1ccccc1)c1ccccc1)C(=O)NCc1ccc(O)cc1 [[^18F]12]    0.38

The record that follows has no fraction unbound at 10 min shown yet.
So, N/C(=N/C(=O)NCc1cn([C@@H]2OC(C[18F])[C@@H](O)C(O)C2O)nn1)NCCC[C@@H](NC(=O)C(c1ccccc1)c1ccccc1)C(=O)NCc1ccc(O)cc1 (stereo partly drawn) [[^18F]11] ? Its fraction unbound at 10 min was 0.42

---

target: hY2R (Homo sapiens); construct: expressed in transfected cells; host or cells: CHO cells (CHO-hY2-Gqi5-mtAEQ); test: Competition binding on CHO-hY2-Gqi5-mtAEQ cells with [^3H]propionyl-pNPY
Sequence (P49146 whole entry): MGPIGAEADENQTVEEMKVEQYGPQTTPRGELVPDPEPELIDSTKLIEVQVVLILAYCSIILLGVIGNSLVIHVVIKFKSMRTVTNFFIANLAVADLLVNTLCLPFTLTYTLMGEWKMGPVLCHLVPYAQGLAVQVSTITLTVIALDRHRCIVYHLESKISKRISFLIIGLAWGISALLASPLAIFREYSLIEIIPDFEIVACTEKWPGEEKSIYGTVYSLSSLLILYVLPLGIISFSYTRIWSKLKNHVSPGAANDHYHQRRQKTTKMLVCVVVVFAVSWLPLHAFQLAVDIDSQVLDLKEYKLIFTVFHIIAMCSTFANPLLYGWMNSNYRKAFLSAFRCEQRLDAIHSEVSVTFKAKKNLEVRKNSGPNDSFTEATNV
pKi: −log10 of the molar value.
Recorded endpoint: pKi

N/C(=N/C(=O)NCc1cn([C@@H]2OC(CF)[C@@H](O)C(O)C2O)nn1)NCCC[C@@H](NC(=O)C(c1ccccc1)c1ccccc1)C(=O)NCc1ccc(O)cc1 (some centres unmarked)    < 5.00

The record that follows has no pKi shown yet.
So, N/C(=N/C(=O)NCc1cn(CCOCCF)nn1)NCCC[C@@H](NC(=O)C(c1ccccc1)c1ccccc1)C(=O)NCc1ccc(O)cc1 ? Its pKi was < 5.00

---

biological target: hY5R (Homo sapiens, UniProt Q15761); construct: expressed in transfected cells; host or cells: HEC-1b cells (HEC-1b hY5R); experiment: Competition binding on HEC-1b hY5R cells with [^3H]propionyl-pNPY
Sequence (Q15761 whole entry): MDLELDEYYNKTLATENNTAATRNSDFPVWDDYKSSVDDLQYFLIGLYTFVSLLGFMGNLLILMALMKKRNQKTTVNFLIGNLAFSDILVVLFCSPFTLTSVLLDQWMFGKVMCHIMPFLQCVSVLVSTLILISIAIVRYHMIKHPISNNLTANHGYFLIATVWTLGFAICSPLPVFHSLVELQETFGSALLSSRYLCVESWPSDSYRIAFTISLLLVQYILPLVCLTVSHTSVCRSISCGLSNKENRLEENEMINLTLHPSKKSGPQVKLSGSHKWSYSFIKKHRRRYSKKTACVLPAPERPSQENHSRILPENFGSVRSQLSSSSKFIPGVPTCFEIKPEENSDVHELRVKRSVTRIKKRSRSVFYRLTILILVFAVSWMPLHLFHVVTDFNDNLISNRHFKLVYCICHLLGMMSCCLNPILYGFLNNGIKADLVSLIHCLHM
pKi: −log10 of the molar value.
Listing of recorded pKi by entry.

N/C(=N/C(=O)NCc1cn(CCOCCF)nn1)NCCC[C@@H](NC(=O)C(c1ccccc1)c1ccccc1)C(=O)NCc1ccc(O)cc1    < 4.82

The record that follows has no pKi shown yet.
So, N/C(=N/C(=O)NCc1cn(CCOCCOCCOCCF)nn1)NCCC[C@@H](NC(=O)C(c1ccccc1)c1ccccc1)C(=O)NCc1ccc(O)cc1 ? Its pKi was < 5.00
